# Method Description: Plasma stability of payloads and linker-payloads, monkey plasma
# Format: in vitro ADME
# Measurement Parameters: pooled plasma, pH 7.4, Monkey, assay time 3 days, Table 5B, read-out: plasma stability T½
Endpoint Label: half-life at 2 µM

>>> reported_measurement("CCc1cc(OCCCCn2cc(COCCOCCOCCOCCOCCOCCOCCOCCN)nn2)ccc1-c1ccc(C[C@H](NC(=O)[C@H](CC(=O)O)NC(=O)[C@H](CO)NC(=O)[C@@H](NC(=O)C(C)(Cc2ccccc2F)NC(=O)[C@@H](NC(=O)CNC(=O)[C@H](Cc2nn[nH]n2)NC(=O)C(C)(C)C(=O)NCCc2cnc[nH]2)[C@@H](C)O)[C@@H](C)O)C(=O)N[C@@H](CCCc2cc(C)cc(C)c2)C(N)=O)cc1 (stereo partly shown)")
"> 49.4 h"
